Reference for the values: ChEMBL document CHEMBL2046395

Test system: Trypanosoma brucei rhodesiense
Experiment: Antitrypanosomal activity against Trypanosoma brucei rhodesiense STIB900 by Alamar blue growth inhibition assay
Assay type: functional, organism-based
outcome_measure: pIC50
Note on units: pIC50 is unitless, being -log10 of a concentration expressed in mol/L.

Past entries and their recorded results:
[
  {
    "smiles_representation": "CCCCn1c2ccc([N+](=O)[O-])cc2c(=O)n1Cc1ccccc1",
    "result": 4.31
  },
  {
    "smiles_representation": "Cn1c2ccc([N+](=O)[O-])cc2c(=O)n1Cc1ccccc1",
    "result": 5.09
  },
  {
    "smiles_representation": "O=C(NN(c1ccccc1)c1ccccc1)c1cc([N+](=O)[O-])ccc1Cl",
    "result": 5.13
  }
]

Moving on to the next compound.
// Input: `O=[N+]([O-])c1ccc2[nH]nc(OCc3ccccc3Cl)c2c1` . Output its pIC50 only. 4.13

---

Each entry below carries its reported pIC50.
Tested on: L6
Test: Cytotoxicity against rat L6 cells
Type: cell-based
Scale: negative log10 of molar concentration, which is what pIC50 denotes.

Let me know recorded pIC50 for `O=C1C[N+]2(CCCCC2)c2ccc([N+](=O)[O-])cc21` , thanks. 4.07

Entry `Cn1c(=O)c2cc([N+](=O)[O-])ccc2n1Cc1ccccc1` needs its pIC50 filled in; supply it. 3.78

Read the entry `O=C(NN(Cc1ccccc1)Cc1ccccc1)c1cc([N+](=O)[O-])ccc1Cl` and write its reported pIC50. 4.38

Supply reported pIC50 belonging to this compound: `O=C(NN(Cc1ccccc1)Cc1ccccc1)c1ccccc1Cl` 4.29

Look up pIC50 of `O=c1c2cc([N+](=O)[O-])ccc2n2n1Cc1ccccc1C2` and report it. 3.65

Report measured pIC50; entry is `O=C(NN(c1ccccc1)c1ccccc1)c1cc([N+](=O)[O-])ccc1F` 5.49

Fill in pIC50 for record `Cn1c2ccc([N+](=O)[O-])cc2c(=O)n1Cc1ccccc1` 4.36

---

Reported log10(IC50) values follow for various compounds
Test system: Trypanosoma brucei rhodesiense
Experiment: Antitrypanosomal activity against Trypanosoma brucei rhodesiense STIB900 by Alamar blue growth inhibition assay
Type: functional, organism-based
Form field - Quantity: IC50; Unit: µM; Scale: log10

Assign log10(IC50) to the following record: `O=C1CN(CCCCCN2CCCCC2)c2ccc([N+](=O)[O-])cc2N1` 1.33

Note down log10(IC50) recorded for `O=C(Cc1cc([N+](=O)[O-])ccc1F)NN1CCCCC1` 2.51

---

Listed next: entries and their corresponding selectivity ratio.
Test: Selectivity index, ratio of IC50 for rat L6 cells to IC50 for Trypanosoma brucei rhodesiense STIB900
Assay type: toxicity, cell-based
Conditions: read-out: Ratio IC50

[
  {
    "molecule": "O=c1c2cc([N+](=O)[O-])ccc2[nH]n1Cc1ccccc1",
    "outcome_measure": "selectivity ratio",
    "result": 1.4
  }
]

For the molecule CON1C(=O)C2CCCCN2c2ccc([N+](=O)[O-])cc21 (stereo not given) , give its measured selectivity ratio value. 0.6

Look up selectivity ratio of `O=c1c2cc([N+](=O)[O-])ccc2[nH]n1Cc1ccccn1` and report it. 1.1

Given `O=[N+]([O-])c1ccc2c(c1)C([O-])=N[N+]21CCCCCC1` , respond with its selectivity ratio. > 2

Read the entry `O=[N+]([O-])c1ccc2c(c1)c(OCc1ccccc1)nn2Cc1ccccc1-c1ccccc1Cn1nc(OCc2ccccc2)c2cc([N+](=O)[O-])ccc21` and write its reported selectivity ratio. > 1.7
